- Measured on: CREBBP bromodomain (His-CREBBP(1081-1197)) (Homo sapiens (Human), UniProt Q92793)
- Sequence (Q92793 1081-1197): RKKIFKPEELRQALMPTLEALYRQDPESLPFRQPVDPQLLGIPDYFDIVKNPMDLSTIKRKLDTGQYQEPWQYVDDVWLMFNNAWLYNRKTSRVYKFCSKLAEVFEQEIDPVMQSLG
- Protocol description: AlphaScreen in-vitro binding assay for CREBBP
- Experimental context: single determination or n ≧ 2 independent determinations, read-out: Biochemical IC50 CREBBP
- Method: AlphaScreen In-Vitro Binding Assay for CREBBP In order to assess bromodomain selectivity, we set up a binding assay using the bromodomain encoded by the CREBBP gene. […] Reactions were incubated at 30° C. for 35 minutes. […] After 60 minutes incubation at room temperature, plates were measured in a Perkin Elmer EnVision multilabel reader. IC50 values were determined from percent inhibition values at different compound concentrations by non-linear regression analysis. […]
Assay metric: IC50 (nM)

(a) COc1cc(N2C(=O)c3nc(C)n(C(C)C)c3C2c2ccc(Cl)cc2)cc2c1nnn2C (stereo not shown)
(b) Cc1cc(N2C(=O)c3nc(C4=CCOCC4)[nH]c3[C@H]2c2ccc(Cl)cc2)cn(C)c1=O
(c) COc1ccc(-c2nc3c(n2C)C(=O)N(c2cc(C)c(=O)n(C)c2)C3c2ccc(Cl)cc2)cn1 (stereo not shown)
IN: rank_up(items): orders items by reported IC50 in ascending numerical order. Please reply with the labels ordered as requested. Many thanks.
OUT: b, c, a
(b: 525 nM, c: 2700 nM, a: 21900 nM)
